Reference for the values: patent US9586931B2

tested.target: recombinant human GST-Syk (Homo sapiens, UniProt P43405)
Construct: purchased Carna Biosciences 08-176
protocol.details: Homogeneous Time-Resolved Fluorescence (HTRF) assay for the recombinant human Syk enzyme
Assay type: biochemical
conditions.used: recombinant human GST-Syk 5 pM, ATP 25 μM, 10-dose titration 10 μM to 0.508 nM; read-out: rhSYK Activity IC50
So I've got a bunch of compounds here, and I need their pIC50 values.
pIC50 here is simply -log10 of the concentration when that concentration is written in mol/L.

Looking up Cc1cc(Nc2cc(C(F)(F)F)ccn2)nc(-c2cn(CC(O)CN)nn2)c1 (centres unmarked) [Example 4.22] , I found its pIC50 recorded as 8.52

Value of pIC50 reported for the compound COc1ccnc(Nc2cc(C)cc(-c3cn(CC(C)(O)C(C)(C)O)nn3)c2)n1 (centres unmarked) [Example 21.12] is 7.55

So, Cc1cc(Nc2nccc(C(F)(F)F)n2)cc(-c2ncnn2C[C@H](O)CO)c1 [Example 2.15] ? Its pIC50 was 5.50

# pIC50 (compound: Cc1cc(Nc2nccc(C(F)(F)F)n2)cc(-c2cn(CCC(=O)O)nn2)c1 [Example 5.60] ) is 7.38

In plain terms, Cc1ccnc(Nc2cc(C)cc(-c3cn(C[C@H](C)CO)nn3)n2)c1 [Example 5.16] has a documented pIC50 of 6.63

Input Cc1cc(Nc2nccc(C(F)(F)F)n2)cc(-c2cn(C3COCC3O)nn2)c1 (single isomer, unassigned) [Example 4.8] . Output pIC50: 7.45

Noted for Cc1cc(Nc2cc(C(F)(F)F)ccn2)nc(-c2cn(CCO)nn2)c1 [Example 5.91] : its pIC50 reads 8.08

// pIC50 value for Cc1cc(Nc2cc(C(F)(F)F)ccn2)nc(-c2cn(C(C)C(=O)NCC3(c4ccc(F)cc4)CCOCC3)nn2)c1 (centres unmarked) [Example 1.49] : 6.39
